# Target Entity: Kappa-type opioid receptor (Homo sapiens)
# Sequence (P41145 whole entry): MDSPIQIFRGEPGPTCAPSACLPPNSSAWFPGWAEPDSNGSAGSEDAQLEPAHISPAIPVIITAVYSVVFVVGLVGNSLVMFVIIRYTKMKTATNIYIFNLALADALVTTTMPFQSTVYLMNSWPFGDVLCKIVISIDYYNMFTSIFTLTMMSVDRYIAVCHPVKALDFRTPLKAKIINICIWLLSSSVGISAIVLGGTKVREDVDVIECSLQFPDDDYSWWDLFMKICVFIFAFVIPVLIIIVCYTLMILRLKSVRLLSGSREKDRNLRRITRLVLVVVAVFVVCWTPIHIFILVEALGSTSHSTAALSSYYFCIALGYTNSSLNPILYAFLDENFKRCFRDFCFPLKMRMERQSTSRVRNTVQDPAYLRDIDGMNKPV
# Experiment: Stimulation of U-69,593 binding at human recombinant Opioid receptor kappa 1 transfected into CHO cells.
Would you kindly list pEC50 for each of these compounds?
On this scale, pEC50 is minus log10 of a concentration expressed in M (mol/L).

Query: Any idea what its pEC50 is? The compound is CN1CC[C@]23c4c5ccc(O)c4O[C@H]2c2[nH]c4ccccc4c2C[C@@]3(NC(=O)CCc2ccccc2)C1C5
Reply: 8.02

Query: Any idea what its pEC50 is? The compound is CN1CC[C@]23c4c5ccc(O)c4O[C@H]2c2[nH]c4ccccc4c2C[C@@]3(N)C1C5
Reply: 7.06

Query: Any idea what its pEC50 is? The compound is CCN[C@@]12Cc3c([nH]c4ccccc34)[C@@H]3Oc4c(O)ccc5c4[C@@]31CCN(C)C2C5
Reply: 7.01

Query: Any idea what its pEC50 is? The compound is CCCCCCC(=O)N[C@@]12Cc3c([nH]c4ccccc34)[C@@H]3Oc4c(O)ccc5c4[C@@]31CCN(C)C2C5
Reply: 7.24
